// reported D(4:3) per item
Experiment: Quality of castor oil containing emulsions with different steroids (pH, volume distribution, span, storage stability)
Type: physicochemical
Settings: emulsion of the steroid, vehicle CO+SBO (70 : 30)
measured-metric: D(4:3)

- compound: "C[C@]12CCC(=O)C=C1CC[C@@H]1[C@@H]2[C@@H](O)C[C@@]2(C)[C@H]1CC[C@]2(O)C(=O)CO [Hydrocortisone, reference compound]"
  measured-metric: "D(4:3)"
  value-reported: "0.56 µm"
- compound: "CC(=O)[C@H]1CC[C@H]2[C@@H]3CC=C4C[C@@H](OS(=O)(=O)O)CC[C@]4(C)[C@H]3CC[C@]12C [Pregnenolone sulphate, 5-pregnen-3β-ol-20-one-sulphate]"
  measured-metric: "D(4:3)"
  value-reported: "0.50 µm"
- compound: "C[C@]12CC[C@@H](O)C[C@H]1CC[C@@H]1[C@@H]2CC[C@]2(C)[C@@H](C(=O)CO)CC[C@@H]12 [Tetrahydrodeoxycorticosterone, 5β-pregnan-3α,21-diol-20-one]"
  measured-metric: "D(4:3)"
  value-reported: "0.58 µm"
- compound: "CC(=O)[C@H]1CC[C@H]2[C@@H]3CC[C@@H]4C[C@@H](O)CC[C@]4(C)[C@H]3CC[C@]12C [Epipreganolone, 5β-pregnan-3β-ol-20-one]"
  measured-metric: "D(4:3)"
  value-reported: "0.75 µm"
- compound: "C[C@]12CC[C@@H](O)C[C@@H]1CC[C@@H]1[C@@H]2CC[C@]2(C)C(=O)CC[C@@H]12 [Androsterone, 5α-androstan-3α-ol-17-one]"
  measured-metric: "D(4:3)"
  value-reported: "0.51 µm"
- compound: "CC(=O)[C@H]1CC[C@H]2[C@@H]3CC[C@H]4C[C@H](O)CC[C@]4(C)[C@H]3CC[C@]12C [Allo pregnanolone, 5α-pregnan-3β-ol-20-one]"
  measured-metric: "D(4:3)"
  value-reported: "0.53 µm"
- compound: "C[C@]12C=CC(=O)C=C1CC[C@@H]1[C@@H]2[C@@H](O)C[C@@]2(C)[C@H]1CC[C@]2(O)C(=O)CO [Prednisolone, reference compound]"
  measured-metric: "D(4:3)"
  value-reported: "0.70 µm"
